The following compounds are listed with their measured binding (% of control) values.
Test system: anti-desmoglein-3 scFv antibody binding to human DSG3
Assay: blockers of pathogenic pemphigus antibody–desmoglein-3 binding – biochemical, validation compound set, bead-based, flow cytometry, pilot screen (AID 588368);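 further: signal is the median channel fluorescence of bead-bound GFP antibody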
Details: Protein G beads, DSG3-Fc, scFv-GFP binding, at 10 µM, active compounds read low
Your answer is read as %, so omit the unit and give the number.

Some compounds with recorded binding (% of control):
- compound: "C=CCC1(O)C(=O)N2C(=C1C(=O)N1CCOCC1)c1ccccc1CC2(C)C (stereo not given)"
  binding (% of control) (%): 95.5
- compound: "COc1ccc(C(=O)COc2ccc(F)cc2)c(O)c1"
  binding (% of control) (%): 94.5
- compound: "Cn1c(Oc2ccc3c(c2)OCO3)nc2c1c(=O)n(Cc1ccccc1)c(=O)n2C"
  binding (% of control) (%): 97.8
- compound: "COc1ccc2[nH]c(=O)c3c(c2c1)OC(C)(C)C=C3"
  binding (% of control) (%): 101

Here is the next item to consider.
Lookup: Look up binding (% of control): CN(C)c1ccc(Nc2c3c4c(cccc4n(C)c2=O)C(=O)c2ccccc2-3)cc1
Found: 93.8

----------
The following compounds are listed with their measured percent response of DMSO control values.
Assay: TOR pathway RTG branch CIT2 reporter changes – S. cerevisiae, GFP fusion, multiplex flow cytometry, primary screen (AID 1870);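 further: barcoded CIT2-GFP strain pooled with four other GFP strains with rapamycin as positive control; median GFP fluorescence per well over plate mean of DMSO wells so 100% = DMSO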
Conditions: S. cerevisiae CIT2-GFP expression, 3 h, at 10 µM, active compounds read high
Your answer is read as %, so omit the unit and give the number.

Some compounds with recorded percent response of DMSO control:
- compound: "COc1cc(C2Nc3ccccc3C(=O)N2c2ccccc2)ccc1O (configuration not stated)"
  percent response of DMSO control [%]: 116
- compound: "COc1ccc(C(C)=O)c2c1OCCO2"
  percent response of DMSO control [%]: 91.9
- compound: "CCOC(=O)C1NN=C(C(=O)c2ccccc2)C1c1ccc(Cl)cc1 (configuration not stated)"
  percent response of DMSO control [%]: 91.3
- compound: "CC1=NS(=O)(=O)c2cc(Cl)ccc2N1"
  percent response of DMSO control [%]: 93.1
- compound: "CC(=O)NC(Cc1c[nH]c2ccccc12)C(=O)N/N=C/c1ccccc1 (configuration not stated)"
  percent response of DMSO control [%]: 104
- compound: "O=c1[nH]cnc2[nH]ncc12"
  percent response of DMSO control [%]: 96.5

Here is the next item to consider.
Lookup: Look up percent response of DMSO control: O=C(O)C1CSC(c2ccco2)N1 (configuration not stated)
Found: 102

----------
Assay: reduced mouse 2C T cell binding to pMHC/ICAM-1 vesicles – MLPCN validation set, flow cytometry, LFA-1/ICAM-1 modulator project, pilot screen (AID 2523);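 further: mean PE anti-B7-1 fluorescence of CD8+ cells relative to row control; 100% = QL9-loaded vesicles with DMSO vehicle in the same plate row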
Conditions: 2C mouse CD8+ T cells, at 7 µM, active compounds read low
Could you mark each record true if its vesicle binding response falls strictly under 200%, and false if it equals or exceeds it?

- molecule: "COc1ccc(-c2coc3c(CN4CCOCC4)c(O)ccc3c2=O)cc1"
  className: "true"
- molecule: "CN(Cc1c(C(=O)N(C)Cc2ccccc2)nc2ccccn12)CC1Cc2ccccc2O1 (stereo not drawn)"
  className: "false"
- molecule: "CCCCCCCC(=O)OCC(O)CO (stereo not drawn)"
  className: "true"
- molecule: "COc1ccc(CN(CCC(c2ccccc2)c2ccc(OC(C)C)cc2)C(=O)CCl)cc1OC (stereo not drawn)"
  className: "false"
- molecule: "CC(=O)NS(=O)(=O)c1ccc(N)cc1"
  className: "false"
- molecule: "O=c1[nH]cc(F)c(=O)[nH]1"
  className: "false"
- molecule: "COc1ccc(NC(=O)N2CCCCC2c2cccnc2)cc1 (stereo not drawn)"
  className: "false"
- molecule: "O=C(CN1C(=O)c2ccccc2S1(=O)=O)Nc1ccccc1"
  className: "true"
- molecule: "CSCC[C@H](NC(=O)Nc1ccc(C)cc1C)C(=O)O"
  className: "true"
- molecule: "CC[N+](C)(C)c1cccc(O)c1"
  className: "true"

Lookup: Given CCCC(CCC)C(=O)OC1C[C@H]2CC[C@@H](C1)[N+]2(C)C (stereo partly drawn) , is recorded vesicle binding response strictly lower than 200%?
Found: true

Lookup: Would you kindly repeat that for COC(=O)CSc1nc2ccc(N)cc2s1 ?
Found: true
